The reported numbers originate from PubChem BioAssay (NCATS).

Experiment: qHTS assay to identify inhibitors of the type 1 interferon - major histocompatibility complex class I in skeletal muscle: Counter screen cell viability and HiBit confirmation (AID 1347412); further: potency means the concentration at half of the fitted maximal effect; nearly all actives have a fitted effect of over 60% in size
Settings: iHSKM muscle cells + IFN-b, HiBiT or CellTiter-Glo, 24 h; HiBiT
Results filed as inconclusive are left out. Active and inactive are the calls of the source. The call rests on the fitted dose curve; in most records, active means well fitted inhibition curve with a large enough effect; inconclusive means small, poorly fitted or top-dose-only effect; inactive means no such curve, though single readings can be large or run the other way.
Listed here: items and their measured Potency.
READOUT_NAME: Potency

GIVEN_SMILES	OBSERVED
Cc1[nH]nc2ccc(-c3cncc(OC[C@@H](N)Cc4c[nH]c5ccccc45)c3)cc12	1.11 µM (active)
COc1ccc2c(c[n+](C)c3c4cc5c(cc4ccc23)OCO5)c1OC	7.01 µM (active)
CCN1CCN(C(=O)Cc2ccc(Nc3ncc(F)c(Nc4ccc(C(=O)Nc5ccccc5Cl)cc4)n3)cc2)CC1	14 µM (active)
O=c1[nH]c2ccc(Cl)cc2c(N[C@@H]2CN3CCC2CC3)c1-c1nc2ccccc2[nH]1	3.52 µM (active)

###

Tested on: Es-2
Assay: Primary qHTS to identify gynecologic anti-cancer compounds using libraries of approved drugs and bioactive compounds (AID 1345084); further: nearly all actives have a fitted effect of over 55% in size
Details: Gynecologic cancer cell panel viability, ATPlite luminescence, 48 h; series mostly up to 57.5 µM
Inconclusive results are not listed. Activity calls are given as the source filed them. Calls follow the shape of the dose curve; as a rule, active = well fitted cell-killing curve with a large enough effect; inconclusive = small, poorly fitted or top-dose-only effect, or effect the other way; inactive = flat fitted curve, though single readings scatter.
Classes used: active, inactive

COMPOUND	EXPERIMENTAL_TARGET	GROUP
COCCOCCO	Es-2	inactive
Cc1ccc(Cl)c(O)c1	Es-2	inactive
CCN(CC)C(=O)c1ccc(C2=CC3(CCNCC3)Oc3cccc(O)c32)cc1	Es-2	inactive
CC(C)NCC(O)c1ccc([N+](=O)[O-])cc1 (stereo not given)	Es-2	inactive
CCC1(CCC(C)C)C(=O)NC(=O)NC1=O	Es-2	inactive
S=C(NC1CCCCC1)N1CCC(c2cnc[nH]2)CC1	Es-2	inactive
CN1CCN(c2ccc([N+](=O)[O-])c3no[n+]([O-])c23)CC1	Es-2	inactive
Cc1ccccc1-n1c(Cn2cnc3c(N)ncnc32)nc2cccc(C)c2c1=O	Es-2	inactive
CC(C)(C)NC[C@H](O)c1ccc(O)cc1Cl	Es-2	inactive
O=C(Oc1ccc([N+](=O)[O-])cc1)N1CCN(Cc2cccc(Oc3ccccc3)c2)CC1	Es-2	inactive
CC(C)N(CCNC(=O)CN1CCCC1=O)C(C)C	Es-2	inactive
CCOC(=O)Nc1ccc(NCc2ccc(F)cc2)cc1N	Es-2	inactive
CCNC(=O)CC1N=C(c2ccc(Cl)cc2)c2cc(OC)ccc2-n2c(C)nnc21 (stereo not given)	Es-2	inactive
COC(=O)c1cncn1C(C)c1ccccc1 (stereo not given)	Es-2	inactive
CCCCOC(=O)c1ccccc1C(=O)OCc1ccccc1	Es-2	inactive
CC1(N2CCC(n3c([C@@H]4CCCNC4)nc4ccccc43)CC2)CCCCCCC1	Es-2	active
C=CC(=O)NCNC(=O)C=C	Es-2	inactive
OCCCBr	Es-2	inactive
O=C(O)c1cc(Oc2ccc(C(F)(F)F)cc2Cl)ccc1[N+](=O)[O-]	Es-2	inactive
C1CCC(NC2CCCCC2)CC1	Es-2	inactive
O=C1C(I)=CC(=C(c2cc(I)c(O)c(I)c2)c2ccccc2C(=O)O)C=C1I	Es-2	inactive
CCO/N=C(\CC)C1=C(O)CC(c2c(C)cc(C)cc2C)CC1=O (stereo not given)	Es-2	inactive
CC(O)CN1CCN(CC(=O)[O-])CCN(CC(=O)[O-])CCN(CC(=O)[O-])CC1.[Gd+3] (stereo not given)	Es-2	inactive
O=[N+]([O-])c1c2ccccc2cc2ccccc12	Es-2	inactive
CC1(C)CC/C(=C/c2ccc(Cl)cc2)C1(O)Cn1cncn1 (stereo not given)	Es-2	inactive
